target.system: Human His6-CBX7 (Homo sapiens (Human), UniProt O95931)
Sequence (O95931 11-69): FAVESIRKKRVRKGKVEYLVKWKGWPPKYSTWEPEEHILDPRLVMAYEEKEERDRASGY
pIC50: −log10 of the molar value.
assay.metric: pIC50

O=C(CC1S/C(=N/N=C/c2ccc(Cl)nc2)NC1=O)Nc1ccc(N2CCCC2)cc1 (stereo not drawn); 4.58
O=C(CCC(=O)N1CCCC(NC(=O)c2cccnc2)C1)c1ccc(CN2CCCC2)cc1 (stereo not drawn); 2.31
O=C(Cc1cnc(NC(=O)Nc2cccnc2)s1)Nc1ccc(CN2CCCC2)cc1; 4.64

a: O=C(CCC(=O)c1ccc(CN2CCCC2)cc1)NC1CCCN(C(=O)c2cccnc2)C1 (stereo not drawn)
b: COC(=O)c1ccc2nc(-c3ccc(O)c(O)c3O)c(NCc3ccccc3)n2c1
// pick min by pIC50: a , b Select an item and report its label. a
(a: 4.33, b: 4.92)

I: CN1CCN(CCNC(=O)CC2S/C(=N/N=C/c3ccc(O)c(O)c3O)NC2=O)CC1 (stereo not drawn) [ACV-63]
II: COc1ccc(-c2ccc3nc(-c4ccco4)cc(C(=O)Nc4ccc(N5CCN(C)CC5)cc4)c3c2)cc1OC
Could you tell me which of I and II has the lower pIC50 reading? The response must carry the label of the picked entry. II

I: O=C(Nc1ccc(N2CCCC2)cc1)c1ccc2nc(-c3ccc(O)c(O)c3O)c(NCc3ccccc3)n2c1
II: O=C(Cc1cnc(NC(=O)Cc2cccnc2)s1)Nc1ccc(N2CCCC2)cc1
Parameter metric = pIC50. Return the lower-valued option from I and II . Field: selected label. Fill in the label of the entry you choose. II

I: O=C(c1ccc(-c2csc(NCCc3cccnc3)n2)cc1)N1CCC(N2CCCC2)CC1
II: O=C(CC1S/C(=N/N=C/c2ccc(O)c(O)c2O)NC1=O)Nc1ccc(N2CCCC2)cc1 (stereo not drawn) [ACV-17* (P1)]
Compare the recorded pIC50 of I and II ; state which is larger. Indicate your choice by writing its label. II
(II: 5.63, I: 4.09)

I: O=C(Nc1ccc(N2CCCC2)cc1)c1ccc(-c2csc(NCCc3cccnc3)n2)cc1
II: O=C(CC1S/C(=N/C(=O)c2ccccc2)NC1=O)Nc1ccc(N2CCCC2)cc1 (stereo not drawn)
Compare I and II by numeric pIC50 and name the larger one. Choose, then provide that item's label. I

I: COc1ccc(NC(=O)Nc2ncc(CC(=O)Nc3ccc(N4CCCC4)cc3)s2)cc1OC
II: CN1CCN(CCNC(=O)CC2SC(N3CCC(c4ccc(O)c(O)c4O)=N3)=NC2=O)CC1 (stereo not drawn)
III: COc1ccc(NC(=O)Cc2csc(NCCN3CCN(C)CC3)n2)c(OC)c1
IV: O=C(NCCN1CCCC1)c1ccc(-c2csc(N/N=C/c3cccnc3)n2)cc1
Rank the items in ascending order with respect to pIC50. I would appreciate it if you listed the labels in the requested order. III, II, I, IV
(III: 3.61, II: 4.27, I: 4.90, IV: 5.52)

###

List of pIC50 tested on Human His6-CBX7 (Homo sapiens (Human), UniProt O95931).
pIC50: −log10 of the molar value.
assay.metric: pIC50

Some solved cases for reference:
O=C(CC1SC(N/N=C/c2ccc(O)c(O)c2O)=NC1=O)Nc1ccc(N2CCCCC2)cc1 (centres unmarked); 6.65
O=C(COCc1ccc(CN2CCCC2)cc1)N1CCN(C(=O)c2cccnc2)CC1; 3.47

A: O=C(CC1S/C(=N/N=C/c2ccc(C(=O)O)cc2)NC1=O)Nc1ccc(N2CCCC2)cc1 (centres unmarked)
B: COc1ccc(CC(=O)Nc2nc3cc(C(=O)NCCN4CCN(C)CC4)ccc3s2)cc1OC
C: CN(C)c1ccc(CCNC(=O)CC2SC(N/N=C/c3ccc(N4CCCC4)cc3)=NC2=O)cc1 (centres unmarked)
Returns the items ordered by pIC50, from maximum to minimum. Note for the reader: the ranking is given by listing the labels in the order requested. C, A, B
(C: 5.42, A: 5.17, B: 3.06)
